- Tested on: MDA-MB-435
- assay-remarks: NCI tumour cell line growth inhibition, 48 h
The source made the active and inactive calls. No stated cut-off is given here; in the data, active = GI50 up to about 1.1 µM and inactive = higher.
# valid calls are active, inactive; nothing else

[[record]]
molecule = "CCOC(=O)/C=C(\\N=P(c1ccccc1)(c1ccccc1)c1ccccc1)C(F)(F)C(F)(F)C(F)(F)C(F)(F)C(F)(F)F"
tgt = "MDA-MB-435"
qualitative_label = "inactive"

[[record]]
molecule = "c1ccc(NN=C(c2ccccn2)c2ccccn2)nc1"
tgt = "MDA-MB-435"
qualitative_label = "active"


In the following, a different molecule is considered.
Req: Which result was noted for this molecule in the test: c1ccc(CN[C@]23C4C5CC6C7C5C2C7[C@@](NCc2ccccc2)(C64)N3Cc2ccccc2)cc1 (stereo partly drawn)
Resp: inactive
